Settings: Rat Intravenous 20 mpk
propertyName: t½ Hour (h)
All answers are understood in h, so give the number only.

*Q* Which measured t½ Hour value corresponds to C#CCN1CCC(C(=O)NO)(S(=O)(=O)c2ccc(Oc3ccc(Cl)c(C)c3)cc2)CC1.Cl ?
*A* 0.76

* * *

Biological target: recombinant human MMP-1 (Homo sapiens)
Construct: made in house; host or cells: transfected HT-1080 cells (provided by Dr. Harold Welgus, Washington University)
Sequence (P03956 100-469): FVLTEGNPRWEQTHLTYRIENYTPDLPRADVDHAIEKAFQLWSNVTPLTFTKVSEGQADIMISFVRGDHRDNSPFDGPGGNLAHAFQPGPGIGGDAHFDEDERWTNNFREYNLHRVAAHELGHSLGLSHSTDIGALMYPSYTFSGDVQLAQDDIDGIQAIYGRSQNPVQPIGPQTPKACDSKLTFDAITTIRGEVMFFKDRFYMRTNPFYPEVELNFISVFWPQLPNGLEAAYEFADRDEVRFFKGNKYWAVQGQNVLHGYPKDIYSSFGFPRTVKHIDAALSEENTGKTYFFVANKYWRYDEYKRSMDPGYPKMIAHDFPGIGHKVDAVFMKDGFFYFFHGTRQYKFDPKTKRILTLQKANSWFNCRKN
Test: biochemical
Settings: Inhibition Table A; read-out: MMP-1 IC50
propertyName: pIC50
Keep it numeric: pIC50 is minus log10 of the concentration in mol/L.

Below, each entry is followed by its recorded pIC50 result.
C#CCN1CCC(C(=O)NO)(S(=O)(=O)c2ccc(Sc3ccccc3)cc2)CC1 | 5.05
C#CCN1CCC(C(=O)NO)(S(=O)(=O)c2ccc(Oc3ccc(-n4ccnc4)cc3)cc2)CC1 | 5.64
C#CCN1CCC(C(=O)NO)(S(=O)(=O)c2ccc(Oc3ccc4c(c3)OCO4)cc2)CC1 | 5.80
CC(C)(C)OC(=O)N1CCC(C(=O)NO)(S(=O)(=O)c2ccc(Oc3ccccc3)cc2)CC1 | 5.94
O=C(NO)C1(S(=O)(=O)c2ccc(Oc3ccc(-n4cncn4)cc3)cc2)CCOCC1 | 5.11
O=C(CS(=O)(=O)c1ccc(Oc2ccccc2)cc1)NO | 5.18

*Q* Which measured pIC50 value corresponds to C=CCN1CCC(C(=O)NO)(S(=O)(=O)c2ccc(Sc3ccccc3)cc2)CC1 ?
*A* 6.11

*Q* Which measured pIC50 value corresponds to C#CCN1CCC(C(=O)NO)(S(=O)(=O)c2ccc(Oc3ccccc3)cc2)CC1 ?
*A* 6.49

*Q* Which measured pIC50 value corresponds to CS(=O)(=O)N1CCC(C(=O)NO)(S(=O)(=O)c2ccc(Oc3ccccc3)cc2)CC1 ?
*A* 6.10

*Q* Which measured pIC50 value corresponds to O=C(NO)C1(S(=O)(=O)c2ccc(Oc3ccccc3)cc2)CCNCC1 ?
*A* 5.96
